- assay info: Bidirectional MDR1-MDCK monolayer permeability
- Assay type: in vitro ADME, canine
- measurement setup: dog, MDCK-MDR1; 3 µM, both directions; read-out: Apparent permeability coefficients
Papp at 3 µM values for the molecules below.

molecule: O=C(O)Cc1ccc(Cc2cc(-c3cccc(Cl)c3)nc(C(F)(F)F)c2)cc1 [zatolmilast]
Papp at 3 µM: 3.72 to 7.18 ×10⁻⁶ cm/s

molecule: O=C(Nc1c(Cl)cncc1Cl)c1ccc(OC(F)F)c(OCC2CC2)c1 [roflumilast]
Papp at 3 µM: > 23 ×10⁻⁶ cm/s

* * *

- assay info: in vivo
- measurement setup: male, C57BL/6J, mouse, po, 10 mg/kg
quantity: AUC(0-inf) (ng·h/mL)

compound structure: O=C(Nc1c(Cl)cncc1Cl)c1ccc(OC(F)F)c(OCC2CC2)c1
quantity: AUC(0-inf)
value observed: 1290
//
compound structure: O=C(O)Cc1ccc(Cc2cc(-c3cccc(Cl)c3)nc(C(F)(F)F)c2)cc1
quantity: AUC(0-inf)
value observed: 62000

* * *

- assay info: in vivo
- measurement setup: male, C57BL/6J, mouse, iv, 1 mg/kg
clearance values for the molecules below.
quantity: clearance (mL/min/kg)

compound structure: O=C(O)Cc1ccc(Cc2cc(-c3cccc(Cl)c3)nc(C(F)(F)F)c2)cc1
unit info: mL/min/kg
value observed: 0.167
--
compound structure: O=C(Nc1c(Cl)cncc1Cl)c1ccc(OC(F)F)c(OCC2CC2)c1
unit info: mL/min/kg
value observed: 3.33

* * *

Papp A→B at 10 µM values for the molecules below.
- assay info: Bidirectional MDR1-MDCK monolayer permeability
- Assay type: in vitro ADME, canine
- measurement setup: dog, MDCK-MDR1; 10 µM; read-out: Papp Apical → Basolateral

compound structure: O=C(Nc1c(Cl)cncc1Cl)c1ccc(OC(F)F)c(OCC2CC2)c1
Papp A→B at 10 µM, ×10⁻⁶ cm/s: 44.5
//
compound structure: O=C(O)Cc1ccc(Cc2cc(-c3cccc(Cl)c3)nc(C(F)(F)F)c2)cc1
Papp A→B at 10 µM, ×10⁻⁶ cm/s: 9.59

* * *

- assay info: Brain disposition in mice
- measurement setup: C57BL/6J, mouse, brain and plasma, po, 10 mg/kg, 4 h after oral 10 mg/kg
quantity: Kp uu at 4 h

compound: O=C(O)Cc1ccc(Cc2cc(-c3cccc(Cl)c3)nc(C(F)(F)F)c2)cc1 [zatolmilast]
value observed: < 0.18

* * *

- assay info: Brain disposition in mice
- measurement setup: C57BL/6J, mouse, brain and plasma, 4 h after oral 10 mg/kg

compound structure: O=C(O)Cc1ccc(Cc2cc(-c3cccc(Cl)c3)nc(C(F)(F)F)c2)cc1
Kp at 4 h: 0.33

* * *

- assay info: Bidirectional MDR1-MDCK monolayer permeability
- Assay type: in vitro ADME, canine
- measurement setup: dog, MDCK-MDR1; 10 µM; read-out: Papp Basolateral → Apical

molecule: O=C(O)Cc1ccc(Cc2cc(-c3cccc(Cl)c3)nc(C(F)(F)F)c2)cc1 [zatolmilast]
Papp B→A at 10 µM, ×10⁻⁶ cm/s: 18
--
molecule: O=C(Nc1c(Cl)cncc1Cl)c1ccc(OC(F)F)c(OCC2CC2)c1 [roflumilast]
Papp B→A at 10 µM, ×10⁻⁶ cm/s: 40.8

* * *

- assay info: Bidirectional MDR1-MDCK monolayer permeability
- Type: in vitro ADME, canine
- measurement setup: dog, MDCK-MDR1; 30 µM; read-out: Papp Apical → Basolateral

compound structure: O=C(O)Cc1ccc(Cc2cc(-c3cccc(Cl)c3)nc(C(F)(F)F)c2)cc1
Papp A→B at 30 µM, ×10⁻⁶ cm/s: 70.3
//
compound structure: O=C(Nc1c(Cl)cncc1Cl)c1ccc(OC(F)F)c(OCC2CC2)c1
Papp A→B at 30 µM, ×10⁻⁶ cm/s: 113
